assay: Quantitative High-Throughput drug screen in 47 multiple myeloma cell lines against the NCATS MIPE library collection: VP6_DJ cell viability assay (AID 1919867); conditions: ATP luminescence, 48 h; series mostly up to 45.8 µM; note: nearly all actives have a fitted effect of over 40% in size; note: potency is the fitted concentration of half-maximal effect
Inconclusive results are not listed. The source made the active and inactive calls. Calls come from the whole dose curve; as a rule, active = well fitted cell-killing curve with a large enough effect; inconclusive = small, poorly fitted or top-dose-only effect, or effect the other way; inactive = no such curve, though single readings can be large or run the other way.
MEASURE: Potency

INSERT INTO assay_data (compound, result) VALUES
  ('CCN(CC)CCNC(=O)c1ccc2nc(-c3ccccc3)c(-c3ccc(CN4CCC(n5c(=O)[nH]c6ccccc65)CC4)cc3)nc2c1', '372 nM (active)'),
  ('CNC(=O)c1c(F)cccc1Nc1nc(Nc2cc3c(cc2OC)CCN3C(=O)CN(C)C)nc2[nH]ccc12', '105 nM (active)'),
  ('CC(C)CC(=O)Nc1n[nH]c2c1CN(C(=O)C1CCN(C)CC1)C2(C)C', '1480 nM (active)'),
  ('C=CC(=O)Nc1cccc(Oc2nc(Nc3ccc(N4CCN(C)CC4)cc3OC)ncc2Cl)c1', '18.7 nM (active)'),
  ('O=C(CCCCCCNC(=O)c1cnc(N(c2ccccc2)c2ccccc2)nc1)NO', '2350 nM (active)'),
  ('CCOc1ccccc1OCCNC(C)Cc1ccc(OC)c(S(N)(=O)=O)c1 (stereo not drawn)', 'inactive'),
  ('C[C@]1(CO)CN(c2cc(C(=O)Nc3ccc4c(c3)-c3c(c(C(N)=O)nn3-c3ccc(F)cc3)CC4)c(Cl)cn2)C[C@@]1(C)CO', '16600 nM (active)'),
  ('CC(NCc1ccc2c(c1)nc(NC(=O)c1ccc(-c3cn[nH]c3)s1)n2CC(C)(C)O)C(C)(C)C (stereo not drawn)', '187 nM (active)'),
  ('Nc1ccccc1NC(=O)c1ccc(CNC(=O)OCc2cccnc2)cc1', '743 nM (active)'),
  ('CC=CC1=C(C(=O)O)N2C(=O)[C@H](NC(=O)[C@H](N)c3ccc(O)cc3)[C@@H]2SC1', '2960 nM (active)');

**Q:** Which Potency is reported for this compound? `O=c1c2ccccc2nc2n1CCc1c-2[nH]c2ccccc12`
**A:** inactive

**Q:** What do you have for `Nc1cc(C(F)(F)F)c(-c2cc(N3CCOCC3)nc(N3CCOCC3)n2)cn1` ?
**A:** 743 nM (active)

**Q:** What do you have for `CNC(=O)c1cc(Oc2ccc(NC(=O)Nc3cc(C(C)(C)C)nn3-c3ccc4ncccc4c3)c(F)c2)ccn1` ?
**A:** 4690 nM (active)

**Q:** What do you have for O=C(O)C1(Cc2cccc(Nc3nccs3)n2)CCC(Oc2cccc(Cl)c2F)CC1 (stereo not drawn) ?
**A:** 148 nM (active)

**Q:** What do you have for `COc1cc2c(Oc3ccc(-c4cnc(Nc5ccc(F)cc5)n(C)c4=O)cc3F)ccnc2cc1OCCCN1CCOCC1` ?
**A:** 2640 nM (active)

**Q:** What do you have for `CC(C)c1ccccc1Cc1cc(C(=O)Nc2ccc(S(=O)(=O)c3ccccc3C(C)(C)C)cc2)c(O)c(O)c1O` ?
**A:** 5260 nM (active)

**Q:** What do you have for `CCC[C@H](NC(=O)C(C#N)=Cc1cccc(Br)n1)c1ccccc1` ?
**A:** 2090 nM (active)

**Q:** What do you have for `CNC(=O)CN1CCC(Oc2cc3c(Nc4cccc(Cl)c4F)ncnc3cc2OC)CC1` ?
**A:** 18.7 nM (active)

----------
assay: qHTS of pediatric cancer cell lines to identify multiple opportunities for drug repurposing: Confirmatory screen for OHS-50 cells (AID 1347128); details: OHS-50 osteosarcoma cells viability; series mostly up to 45.9 µM;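 note: compound exposure lasted 48 h at 37 degrees C; nearly all actives have a fitted effect of over 55% in size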
Inconclusive results are not listed. Active and inactive are the calls of the source. Calls come from the whole dose curve; as a rule, active = well fitted cell-killing curve with a large enough effect; inconclusive = small, poorly fitted or top-dose-only effect, or effect the other way; inactive = no such curve, though single readings can be large or run the other way.
API: response.call in active, inactive

Reference set (8 entries):
INSERT INTO assay_data (molecule, qualitative_label) VALUES
  ('CCC1=C[C@@H]2CN(C1)Cc1c([nH]c3ccccc13)[C@@](C(=O)OC)(c1cc3c(cc1OC)N(C)[C@@H]1[C@@](O)(C(=O)OC)[C@H](OC(C)=O)[C@]4(CC)C=CCN5CC[C@]31[C@@H]54)C2', 'active'),
  ('OCCCNc1cc(-c2ccnc(Nc3cccc(Cl)c3)n2)ccn1', 'active'),
  ('CCCCc1nc2cc(C=CC(=O)NO)ccc2n1CCN(CC)CC', 'active'),
  ('COCCn1c2c([n+](Cc3cnccn3)c1C)C(=O)c1ccccc1C2=O', 'active'),
  ('CCc1c2c(nc3ccc(O)cc13)-c1cc3c(c(=O)n1C2)COC(=O)[C@]3(O)CC', 'inactive'),
  ('Cc1ccc(-c2ncn(-c3ccc(Nc4nccc(-c5cccc(N6CCOCC6)c5)n4)cc3)n2)cn1', 'active'),
  ('COC(=O)c1ccc2c(C(=Nc3ccc(N(C)C(=O)CN4CCN(C)CC4)cc3)c3ccccc3)c(O)[nH]c2c1', 'active'),
  ('Cc1ccc(C(=O)Nc2ccc(CN3CCN(C)CC3)c(C(F)(F)F)c2)cc1C#Cc1cnc2cccnn12', 'inactive');

Please turn your attention to the following entry.
**Q:** Recorded call for `CC(C)[C@H](C(=O)Nc1ccc(C(=O)NO)cc1)c1ccccc1` ?
**A:** active

----------
Experiment: Quantitative High-Throughput drug screen in 47 multiple myeloma cell lines against the NCATS MIPE library collection: KMS12BM_JCRB cell viability assay (AID 1918971); note: potency is the fitted concentration of half-maximal effect; nearly all actives have a fitted effect of over 35% in size
Conditions: KMS12BM myeloma viability, CellTiter-Glo ATP, 48 h; series mostly up to 45.8 µM
Text: PI: Beverly A. Mock Ph.D. Laboratory of Cancer Biology and Genetics, Center for Cancer Research, National Cancer Institute, National Institute of Health, Bethesda, Maryland […] 5; Detector; 425V; Luminescence; Viewlux PerkinElmer. […] 1. […] Briefly, the corresponding myeloma cell lines were screened in 1,536-well plates with 500 cells, 5-uL per well for inhibition of cell viability (assessed by measuring ATP levels with CellTiterGlo). […]
Results filed as inconclusive are left out. Calls of active or inactive are those of the source. Calls come from the whole dose curve; as a rule, active = well fitted cell-killing curve with a large enough effect; inconclusive = small, poorly fitted or top-dose-only effect, or effect the other way; inactive = no such curve, though single readings can be large or run the other way.
MEASURE: Potency

Consider the reported Potency for these molecules:
INSERT INTO measurements (molecule, result) VALUES
  ('Cc1ccc(NC(=O)C2(c3ccc4c(c3)OC(F)(F)O4)CC2)nc1-c1cccc(C(=O)O)c1', '0.0296 µM (active)'),
  ('Nc1ccn([C@@H]2O[C@H](CO)[C@H](O)C2(F)F)c(=O)n1', '0.0264 µM (active)'),
  ('Nc1ncnc2c1c(-c1cnc3[nH]ccc3c1)nn2C1CCCC1', '0.743 µM (active)'),
  ('CC(C)=CCCC(C)=CCCC(C)=CCSc1ccccc1C(=O)O', '1.66 µM (active)');

**Q:** Which Potency is reported for this molecule? CC1(C)CC(=O)c2c(C(F)(F)F)nn(-c3ccc(C(N)=O)c(NC4CCC(OC(=O)CN)CC4)c3)c2C1 (stereo not given)
**A:** 0.187 µM (active)

**Q:** What do you have for `C[C@@H](Oc1cc(-c2cnn(C3CCNCC3)c2)cnc1N)c1c(Cl)ccc(F)c1Cl` ?
**A:** 16.6 µM (active)

**Q:** What do you have for `CNC(=O)c1ccccc1Nc1nc(Nc2ccc(N3CCOCC3)cc2OC)ncc1Cl` ?
**A:** 13.2 µM (active)

**Q:** What do you have for `c1cc(-c2cnn3cc(-c4ccc(OCCN5CCCCC5)cc4)cnc23)ccn1` ?
**A:** 16.6 µM (active)

**Q:** What do you have for `COc1c(OCCCN2CCOCC2)ccc2c3n(c(=NC(=O)c4cnc(N)nc4)nc12)CCN3` ?
**A:** 5.75 µM (active)

**Q:** What do you have for `Cc1coc2c1C(=O)C(=O)c1c-2ccc2c1CCCC2(C)C` ?
**A:** 5.26 µM (active)

----------
Assay: Quantitative High-Throughput drug screen in 47 multiple myeloma cell lines against the NCATS MIPE library collection: INA6_PLB cell viability assay (AID 1918965; note: potency is the fitted concentration of half-maximal effect; nearly all actives have a fitted effect of over 55% in size)
Conditions: INA6 myeloma viability, CellTiter-Glo ATP luminescence, 48 h; series mostly up to 45.8 µM
Source text: PI: Beverly A. Mock Ph.D. Laboratory of Cancer Biology and Genetics, Center for Cancer Research, National Cancer Institute, National Institute of Health, Bethesda, Maryland […] 5; Detector; 425V; Luminescence; Viewlux PerkinElmer. […] 1. […] Briefly, the corresponding myeloma cell lines were screened in 1,536-well plates with 500 cells, 5-uL per well for inhibition of cell viability (assessed by measuring ATP levels with CellTiterGlo). […]
Records with an inconclusive call do not appear. The source made the active and inactive calls. The call rests on the fitted dose curve; in most records, active means well fitted cell-killing curve with a large enough effect; inconclusive means small, poorly fitted or top-dose-only effect, or effect the other way; inactive means no such curve, though single readings can be large or run the other way.
Measured Potency, listed per entry.

**Q:** Which Potency is reported for this compound? `Nc1ccn([C@@H]2O[C@H](CO)[C@H](O)C2(F)F)c(=O)n1`
**A:** 52.6 nM (active)

**Q:** What do you have for `CC(=O)Nc1nc(C)c(-c2ccc(Cl)c(S(=O)(=O)NCCO)c2)s1` ?
**A:** 1050 nM (active)

**Q:** What do you have for `CC(C)c1nn(-c2c(Cl)cccc2Cl)c2nc(Cc3ccc(OCCO)cc3)[nH]c(=O)c12` ?
**A:** 83.3 nM (active)

**Q:** What do you have for `Cc1cn2c(-c3cn[nH]c3)cnc2c(Nc2ccc(C(=O)N3CCNCC3)cc2F)n1` ?
**A:** 16600 nM (active)

**Q:** What do you have for `CC(C)c1cnn2c(NCc3ccccc3)cc(N[C@@H](CO)[C@H](O)CO)nc12` ?
**A:** 166 nM (active)

**Q:** What do you have for `CC(C)c1ccc(Cn2ccc3c4c(N)nc(NC5CC5)nc4ccc32)cc1` ?
**A:** 1480 nM (active)
